Item-by-item account of TGI
# System: NCI-H460 lung
# Experimental details: NCI tumour cell line growth inhibition, 48 h

[
  {
    "Compound": "O=S1(=O)CCN(Cc2ccccn2)CC1",
    "TGI": "> 100 µM"
  },
  {
    "Compound": "CN1C(=O)CNC(=O)[C@H](NC(=O)c2nc3ccccc3cc2O)CSSC[C@H]1C(=O)NCCc1nc2ccccc2cc1O",
    "TGI": "> 35.2 µM"
  }
]

Could you now consider this next compound?
Request: Item under review: COc1ccc(C(O)CNC(=O)c2ccccc2)cc1 (stereo unspecified) . Reported TGI?
Result: > 100 µM

Where do these numbers come from? They come from PubChem BioAssay (NCI).
